- Protocol Notes: A qHTS for Small Molecule Inhibitors of Shiga Toxin
- Test Parameters: Vero cells, Shiga toxin protein synthesis inhibition reporter; at 38.7 µM, active compounds read high
About 27,000 (9.3%) of roughly 290,000 compounds were called active. The sample as a whole holds a higher share of actives than the screen did.
Decision: inhibition compared against 30%; not below it gives y, below it gives n.

{"Compound": "COc1cccc(Oc2ccc(N)cc2)c1", "Category Label": "y"}

Prompt: Would you say Cc1c(OC(C)C(=O)N[C@@H](Cc2ccccc2)C(=O)O)ccc2c3c(c(=O)oc12)CCCC3 (stereo partly drawn) shows inhibition at minimum 30%?
Completion: n

Prompt: Would you say Cc1nc2cc3c(cc2s1)OCO3 shows inhibition at minimum 30%?
Completion: n

Prompt: Would you say Cc1ccc(CS(=O)Cc2ccc(C(=O)N3CCOCC3)o2)cc1 (stereo not drawn) shows inhibition at minimum 30%?
Completion: n

###

- Protocol Notes: A qHTS for Small Molecule Inhibitors of Shiga Toxin
- Test Parameters: Vero cells, Shiga toxin protein synthesis inhibition reporter; at 38.7 µM
The campaign covered roughly 290,000 compounds. About 27,000 (9.3%) were called active. No stated cut-off is given here; in the data, active means inhibition mostly above about 28% (no sharp cut-off); inactive means mostly below about 43%. The full list was thinned out, with actives kept by preference.
Give one outcome, nothing more. List: active, inactive

Prompt: For O=C(c1ccco1)N1CCN(C(=O)c2ccc(COc3ccc(F)cc3)o2)CC1 , which call appears in the assay record?
Completion: inactive

Prompt: For Cc1ccc(C2CCN(C(=S)Nc3cccc(Cl)c3)C2)cc1 (stereo unspecified) , which call appears in the assay record?
Completion: active

Prompt: For O=C(C1CCCO1)N1CCN(C(=S)Nc2cccc(Cl)c2)CC1 (stereo unspecified) , which call appears in the assay record?
Completion: inactive

Prompt: For CC(C)[C@H](NC(=O)N1CCn2c1nc1ccccc12)C(=O)NCCc1ccccc1 , which call appears in the assay record?
Completion: inactive

Prompt: For O=C(CN1CCN(c2ccc(Cl)cc2)CC1)c1ccccc1 , which call appears in the assay record?
Completion: inactive

Prompt: For O=C(c1cc(-c2ccccc2O)on1)N1CCCC1 , which call appears in the assay record?
Completion: active

Prompt: For O=C(c1cc(-c2cccs2)on1)N1CCCCC1 , which call appears in the assay record?
Completion: active

Prompt: For COc1cc(Cl)ccc1OCc1cc(C(=O)N(C)CCc2c(C)n[nH]c2C)no1 , which call appears in the assay record?
Completion: inactive

Prompt: For COc1cccc(OCc2cc(C(=O)N3CCN(C(=O)c4ccco4)CC3)no2)c1 , which call appears in the assay record?
Completion: active

Prompt: For Cc1nnc2sc(-c3ccco3)nn12 , which call appears in the assay record?
Completion: inactive

Prompt: For O=C(c1cccc(Br)c1)N1CCN(C2=NS(=O)(=O)c3ccccc32)CC1 , which call appears in the assay record?
Completion: inactive

###

- Protocol Notes: A qHTS for Small Molecule Inhibitors of Shiga Toxin
- Test Parameters: Vero cells, Shiga toxin protein synthesis inhibition reporter; at 38.7 µM, active compounds read high
Screen size: about 290,000 compounds; about 27,000 (9.3%) were called active. Shown is part of a subset that was picked to be rich in actives.
Endpoint Label: inhibition (%)
Expressed in %, but write only the number.

Solved cases below.
{"Compound": "O=C(NCc1ccccn1)c1ccc2nc(-c3ccco3)c(-c3ccco3)nc2c1", "Scale Unit": "%", "Readout Number": 5.29}
{"Compound": "COc1cccc(N(C(=O)CNC(=O)c2ccco2)C(C(=O)NC2CCCCC2)c2cccnc2)c1 (stereo not given)", "Scale Unit": "%", "Readout Number": -9.43}
{"Compound": "C[n+]1cc(-c2ccccc2)oc1-c1ccccc1", "Scale Unit": "%", "Readout Number": 88.6}
{"Compound": "NS(=O)(=O)c1cccc(NC(=O)COC(=O)/C=C/c2ccco2)c1", "Scale Unit": "%", "Readout Number": 26.6}

Prompt: Value lookup for inhibition; key = O=C(Nc1cccc(-c2nc3ccccc3[nH]2)c1)c1ccc(C(=O)Nc2cccc(-c3nc4ccccc4[nH]3)c2)cc1
Completion: 62.5

Prompt: Value lookup for inhibition; key = CCCOc1ccc(NC(=O)C2CCCNC2=O)cc1 (stereo not given)
Completion: 25.7

Prompt: Value lookup for inhibition; key = CC(C)Oc1ccc(/C=C(\NC(=O)/C=C/c2ccco2)C(=O)NCCc2nc3ccccc3[nH]2)cc1
Completion: 14.2

Prompt: Value lookup for inhibition; key = N/C(=N\OC(=O)Cc1ccc([N+](=O)[O-])cc1)c1ccccn1
Completion: 124

Prompt: Value lookup for inhibition; key = CCCCC1(C(=O)OCC)NC(c2ccc(O)cc2)C2C(=O)N(c3ccccc3)C(=O)C21 (stereo not given)
Completion: -10.2

###

Each entry below carries its recorded inhibition.
- Protocol Notes: A qHTS for Small Molecule Inhibitors of Shiga Toxin
- Test Parameters: Vero cells, Shiga toxin protein synthesis inhibition reporter; at 38.7 µM, active compounds read high
Among all 290,000 compounds or so, about 27,000 (9.3%) were called active. For the sample, actives were picked, then their nearest neighbours and some compounds at random.

{"Compound": "Cc1c(C(=O)N2CCCc3ccccc32)sc2nc(-c3ccccc3)cn12", "inhibition": "21.5% (inactive)"}
{"Compound": "Cc1cc(=O)oc2c(C)c(OCC(=O)NCCN3CCOCC3)ccc12", "inhibition": "-1.86% (inactive)"}
{"Compound": "COc1ccc(C(=O)NCc2nnc(SCCOc3ccccc3)n2C)cc1", "inhibition": "-8.47% (inactive)"}
{"Compound": "COc1cccc(C(=O)NCCSc2ccc(Br)cc2)c1", "inhibition": "0.537% (inactive)"}
{"Compound": "COc1ccc(/C=C(\\C#N)c2c[nH]c3ccccc23)cc1", "inhibition": "68% (active)"}
{"Compound": "Cc1c(C(=O)NCC2CCCO2)sc2nc(-c3ccccc3)cn12 (configuration not stated)", "inhibition": "93% (active)"}
{"Compound": "COc1ccccc1-n1ccnc1SCC(=O)NC(C)(C)C", "inhibition": "18.7% (inactive)"}
{"Compound": "CCc1ccc(C(CNc2nc(C(F)(F)F)nc3ccccc23)N(C)C)cc1 (configuration not stated)", "inhibition": "-12.5% (inactive)"}

Prompt: Value lookup for inhibition; key = O=C(CNC(=O)c1ccco1)OCC(=O)c1ccccc1
Completion: 46.8% (inactive)

Prompt: Value lookup for inhibition; key = CCCc1ccc(OCCNC(=O)c2ccco2)cc1
Completion: 78.3% (active)

Prompt: Value lookup for inhibition; key = Cc1cccc(C)c1NC(=O)N1CC(C)OC(C)C1 (configuration not stated)
Completion: -12.3% (inactive)

Prompt: Value lookup for inhibition; key = COc1ccc(-c2c(-c3ccc(OC)cc3O)nc(C)nc2C(F)(F)F)cc1
Completion: 2.92% (inactive)

Prompt: Value lookup for inhibition; key = COc1ccc(C(=O)Nc2cccnc2)cc1C(=O)Nc1cccnc1
Completion: 9.57% (inactive)

Prompt: Value lookup for inhibition; key = Cc1onc(C(=O)Nc2ccc3c(c2)OCO3)c1[N+](=O)[O-]
Completion: 62.7% (active)

Prompt: Value lookup for inhibition; key = Cc1cc(C(=O)N/N=C/c2ccccn2)c2ccccc2n1
Completion: -6.51% (inactive)

Prompt: Value lookup for inhibition; key = O=C(Nc1cccnc1)c1ccc2c(c1)OCO2
Completion: 33% (active)

Prompt: Value lookup for inhibition; key = NS(=O)(=O)c1ccc(CCNc2nc(C(F)(F)F)nc3ccccc23)cc1
Completion: -9.53% (inactive)

###

- Protocol Notes: A qHTS for Small Molecule Inhibitors of Shiga Toxin
- Test Parameters: Vero cells, Shiga toxin protein synthesis inhibition reporter; at 38.7 µM
The campaign covered roughly 290,000 compounds. About 27,000 (9.3%) were called active. Rule as the data show it: active = inhibition mostly above about 28% (no sharp cut-off); inactive = mostly below about 43%. This is one part of a sample in which actives are shown more often than they occur.
Give one outcome, nothing more. List: class 1 = active, class 0 = inactive

These solved cases illustrate the format of a correct answer.
{"Compound": "O=C(Nc1nnc(S(=O)(=O)N2CCCCCC2)s1)c1cccc(Br)c1", "Category Label": "class 0"}
{"Compound": "COc1ccc(C2=NN(c3ccccc3)C(c3cccs3)C2)cc1 (stereo unspecified)", "Category Label": "class 0"}
{"Compound": "O=C(c1ccccc1)N1N=C(c2ccccc2O)CC1c1ccc(Br)cc1 (stereo unspecified)", "Category Label": "class 0"}
{"Compound": "COc1ccc(C2CC(c3cccs3)=NN2c2ccccc2)cc1 (stereo unspecified)", "Category Label": "class 1"}

Prompt: For Cc1nn(C(C)C(=O)N2CCOCC2)c(=O)c2nn(-c3ccccc3)c(C)c12 (stereo unspecified) , which call appears in the assay record?
Completion: class 0

Prompt: For O=C(Nc1ccc(N2CCOCC2)c(Cl)c1)c1ccc(S(=O)(=O)N2CCOCC2)cc1 , which call appears in the assay record?
Completion: class 0

Prompt: For Cc1ccccc1-n1cc(CNC(=O)C2CCC(=O)N(C3CC3)C2)cn1 (stereo unspecified) , which call appears in the assay record?
Completion: class 0
